biological target: Protein cereblon/Estrogen receptor (Homo sapiens, UniProt P03372+Q96SW2); experiment: Protac activity at human ERalpha in human MCF7 cells assessed as protein degradation incubated for 12 hrs by ICW blot assay; type: cell-based
Sequence (P03372 whole entry): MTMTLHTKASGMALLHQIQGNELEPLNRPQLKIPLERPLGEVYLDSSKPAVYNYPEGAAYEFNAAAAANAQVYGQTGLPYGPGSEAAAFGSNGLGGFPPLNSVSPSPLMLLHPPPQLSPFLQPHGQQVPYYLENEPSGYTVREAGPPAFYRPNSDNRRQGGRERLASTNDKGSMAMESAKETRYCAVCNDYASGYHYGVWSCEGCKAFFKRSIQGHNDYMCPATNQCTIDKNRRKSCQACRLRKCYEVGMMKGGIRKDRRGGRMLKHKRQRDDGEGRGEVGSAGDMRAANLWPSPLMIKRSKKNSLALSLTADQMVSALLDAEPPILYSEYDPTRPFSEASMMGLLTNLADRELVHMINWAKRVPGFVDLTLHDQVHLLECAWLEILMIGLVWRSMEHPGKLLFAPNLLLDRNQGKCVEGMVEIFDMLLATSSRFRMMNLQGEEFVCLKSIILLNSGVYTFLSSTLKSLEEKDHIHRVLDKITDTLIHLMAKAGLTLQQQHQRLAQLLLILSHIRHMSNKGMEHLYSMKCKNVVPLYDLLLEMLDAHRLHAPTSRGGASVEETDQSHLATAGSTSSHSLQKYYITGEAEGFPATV
Sequence (Q96SW2 whole entry): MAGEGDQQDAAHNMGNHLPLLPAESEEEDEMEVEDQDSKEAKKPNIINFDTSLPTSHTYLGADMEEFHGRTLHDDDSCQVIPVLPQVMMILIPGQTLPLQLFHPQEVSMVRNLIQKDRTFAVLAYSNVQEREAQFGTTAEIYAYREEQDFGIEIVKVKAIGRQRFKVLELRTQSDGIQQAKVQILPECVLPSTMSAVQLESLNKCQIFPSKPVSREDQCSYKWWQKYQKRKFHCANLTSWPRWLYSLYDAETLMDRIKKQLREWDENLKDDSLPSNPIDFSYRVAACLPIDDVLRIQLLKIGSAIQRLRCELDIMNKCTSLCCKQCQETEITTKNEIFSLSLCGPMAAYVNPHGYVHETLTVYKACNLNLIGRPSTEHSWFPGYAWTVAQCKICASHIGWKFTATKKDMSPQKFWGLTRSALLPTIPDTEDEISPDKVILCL
quantity measured: DC50 (µM)

Answered cases to consult:
- molecule: "O=C1CCC(N2C(=O)c3cc4c(cc3C2=O)CN(CC(=O)N2CCC3(CC2)CCN(c2ccc([C@H]5c6ccc(O)cc6CC[C@H]5c5ccccc5)cc2)C3)C4)C(=O)N1 (single isomer, unassigned)"
  unit abbrev: "µM"
  DC50: 0.018
- molecule: "O=C1CCC(N2C(=O)c3cc4c(cc3C2=O)CN(C2CCN(C(=O)C3CCN(c5ccc([C@@H]6c7ccc(O)cc7CC[C@@H]6c6ccccc6)cc5)CC3)CC2)C4)C(=O)N1 (stereo partly specified)"
  unit abbrev: "µM"
  DC50: 0.0016

(1) C[C@@H]1Cc2c([nH]c3ccccc23)[C@@H](c2c(F)cc(N3CCC4(CCN(C(=O)CN5Cc6cc7c(cc6C5)C(=O)N(C5CCC(=O)NC5=O)C7=O)CC4)CC3)cc2F)N1CC(F)(F)CO (stereo partly specified)
(2) C[C@@H]1Cc2c([nH]c3ccccc23)[C@@H](c2c(F)cc(N3CCC4(CCN(C(=O)CN5Cc6cc7c(cc6C5)C(=O)N(C5CCC(=O)NC5=O)C7=O)CC4)CC3)cc2F)N1CC(F)F (stereo partly specified)
Query :: Which one would you say has the larger DC50 value: 1 , or 2 ? Use the label to indicate which entry you chose.
Result :: 2

(P) O=C1CCC(N2C(=O)c3cc4c(cc3C2=O)CN(CC2CCN(CC3CN(c5ccc([C@@H]6c7ccc(O)cc7CC[C@@H]6c6ccccc6)cc5)C3)CC2)C4)C(=O)N1 (stereo partly specified)
(Q) O=C1CCC(N2C(=O)c3cc4c(cc3C2=O)CN(CCC2CCN(c3ccc([C@@H]5c6ccc(O)cc6CC[C@@H]5c5ccccc5)cc3)CC2)C4)C(=O)N1 (stereo partly specified)
(R) O=C1CCC(N2C(=O)c3cc4c(cc3C2=O)CN(C2CCN(CC3CCN(c5ccc([C@@H]6c7ccc(O)cc7CC[C@@H]6c6ccccc6)cc5)CC3)CC2)C4)C(=O)N1 (stereo partly specified)
(S) O=C1CCC(N2C(=O)c3cc4c(cc3C2=O)CN(CC2CCN(c3ccc([C@@H]5c6ccc(O)cc6CC[C@@H]5c5ccccc5)cc3)CC2)C4)C(=O)N1 (stereo partly specified)
Query :: Sort by DC50, descending. Give me the labels in the order the question wants.
Result :: Q, S, P, R

Hey, just so you know, these numbers are from ChEMBL document CHEMBL5321293.
